Here's a batch of compounds along with measured pIC50 for liver α-1,6-glucosidase (Homo sapiens).
pIC50: −log10 of the molar value.
measured_endpoint: pIC50

{"columns": ["query_smiles", "system_under_test", "measured_endpoint", "value_observed"],
 "data": [
  ["OC[C@H]1CNC[C@@H](O)[C@@H]1O", "liver α-1,6-glucosidase (Homo sapiens)", "pIC50", 4.11],
  ["OC[C@H]1NC[C@H](O)[C@@H](O)[C@@H]1O", "liver α-1,6-glucosidase (Homo sapiens)", "pIC50", 5.62]
]}

====

# system_under_test: Phosphorylase
# conditions: read-out: I.C.50 Phosphorylase; phosphorylase purchased from Sigma or extracted from rat livers
pIC50: −log10 of the molar value.
measured_endpoint: pIC50

{"columns": ["compound", "system_under_test", "measured_endpoint", "value_observed"],
 "data": [
  ["OC[C@H]1NC[C@H](O)[C@@H](O)[C@@H]1O [1-deoxynojirimycin]", "Phosphorylase", "pIC50", "< 3.70"]
]}
